Data credit: patent US7265152B2

biological target: HCV NS5B (Hepatitis C virus genotype 1b, UniProt Q9WMX2); construct: fusion protein, of which the carboxyl terminal 21 amino acids were removed to enhance its solubility; His tag (GSHHHHHH); made in house; host or cells: E. coli; test: Inhibition of viral RNA-dependent RNA polymerase (RdRp), in vitro biochemical assay; set-up: species or system HCV genotype 1b virus (BB7); settings: HCV NS5B RdRp, BB7; class symbols A-D; read-out: HCV pol-BB7 IC50
quantity_name: IC50

For this compound ( CNC(=O)c1c(-c2ccc(F)cc2)oc2cc(N3CCOCC3)c(OCc3ccc(C(=O)O)cc3)cc12 [Example 267] ), measured IC50 is ≤ 0.5 µM

The reported value for CNC(=O)c1c(-c2ccc(F)cc2)oc2cc(C3CCCN3)c(OC(C)C)cc12 (centres unmarked) [Example 265] in terms of IC50 is 5 to 30 µM

For this compound ( CNC(=O)c1c(-c2ccc(F)cc2)oc2cc(C(C)=O)c(OC)cc12 [Example 261] ), measured IC50 is ≤ 0.5 µM

# IC50 (compound: CNC(=O)c1c(-c2ccc(F)cc2)oc2cc(N(Cc3ccc(OC)cc3)S(C)(=O)=O)c(OC(C)C)cc12 [Example 281] ) is ≤ 0.5 µM

IC50 measured on CNC(=O)c1c(-c2ccc(F)cc2)oc2cc(C3CNC(=O)C3C(=O)NC)c(OC)cc12 (centres unmarked) [Example 278] = ≤ 0.5 µM

Item: CCC(C)(O)COc1cc2c(C(=O)NC)c(-c3ccc(F)cc3)oc2cc1N1CCOCC1 (centres unmarked) [Example 251] | IC50: 0.5 to 5 µM

Item: CNC(=O)c1c(-c2ccc(F)cc2)oc2cc(C(C)(C)O)c(C)cc12 [Example 300] | IC50: ≤ 0.5 µM

For reference, reported IC50 for CNC(=O)c1c(-c2ccc(F)cc2)oc2ccc(OCc3cccc(C(=O)OC)c3)cc12 [Example 258] stands at ≤ 0.5 µM

---

tested on: HCV replicon (BB7 sequence) in Huh-7-Clone A cells; test: HCV replicon assay: ELISA of NS5A protein in replicon-containing cells (Inhibition of Viral RNA Replication); assay type: cell-based; details: Hepatitis C virus; HCV replicon assay; ranges of 50% effective concentration (EC50); read-out: Replicon
pEC50: −log10 of the molar value.
quantity_name: pEC50

Value of measured pEC50 for the entry CNC(=O)c1c(-c2ccc(F)cc2)oc2cc(N(C)S(C)(=O)=O)c(OCc3nn(C)cc3Cl)cc12 [Example 403] : > 6.00

The reported pEC50 of the molecule CNC(=O)c1c(-c2ccc(F)cc2)oc2cc(N(C)S(C)(=O)=O)c(OCc3nccs3)cc12 [Example 388] was > 6.00

For reference, reported pEC50 for CNC(=O)c1c(-c2ccc(F)cc2)oc2cc(N(C)S(C)(=O)=O)c(OCc3nccn3C)cc12 [Example 398] stands at > 6.00

Reported pEC50 ( CNC(=O)c1c(-c2ccc(F)cc2)oc2cc(C(=O)CO)c(OC)cc12 [Example 436] ) = > 5.00

Lab note: CNC(=O)c1c(-c2ccc(F)cc2)oc2cc(-c3c(C)noc3C)c(OCc3nccs3)cc12 [Example 410] gave pEC50 of > 6.00

// recorded pEC50 for CNC(=O)c1c(-c2ccc(F)cc2)oc2cc(N(C)S(C)(=O)=O)c(OCCn3cccn3)cc12 [Example 404] : > 6.00

Kindly note the recorded pEC50 for CNC(=O)c1c(-c2ccc(F)cc2)oc2cc(C(C)(C)N)c(OC)cc12 [Example 384] , which is > 4.52

Notebook: CNC(=O)c1c(-c2ccc(F)cc2)oc2cc(NS(C)(=O)=O)c(C3CC3)cc12 [Example 418] , pEC50 read as > 6.00

---

target: HCV NS5B (Hepatitis C virus genotype 1b); construct: fusion protein, of which the carboxyl terminal 21 amino acids were removed to enhance its solubility; His tag (GSHHHHHH); made in house; host or cells: E. coli; assay: Inhibition of viral RNA-dependent RNA polymerase (RdRp), in vitro biochemical assay; parameters: species or system HCV genotype 1b virus (BB7); details: HCV NS5B RdRp, BB7; class symbols A-D; read-out: HCV pol-BB7 IC50
pIC50: −log10 of the molar value.
quantity_name: pIC50

The compound CNC(=O)c1c(-c2ccc(F)cc2)oc2cc(C(C)N(C)S(C)(=O)=O)c(OC)cc12 (stereo not shown) , when measured on HCV NS5B (Hepatitis C virus genotype 1b), yielded pIC50 of ≥ 6.30

pIC50 on HCV NS5B (Hepatitis C virus genotype 1b) for CNC(=O)c1c(-c2ccc(F)cc2)oc2cc(N(Cc3cscn3)S(C)(=O)=O)c(OC)cc12 is ≥ 6.30

Param item: CNC(=O)c1c(-c2ccc(F)cc2)oc2cc(N(Cc3c(C)noc3C)S(C)(=O)=O)c(OC)cc12 ; param system: HCV NS5B (Hepatitis C virus genotype 1b); output pIC50: ≥ 6.30

Tested on HCV NS5B (Hepatitis C virus genotype 1b), the item CNC(=O)c1c(-c2ccc(F)cc2)oc2cc(N(C)S(C)(=O)=O)c(OCc3csc(C)n3)cc12 showed pIC50 equal to ≥ 6.30

Recorded pIC50 for CNC(=O)c1c(-c2ccc(F)cc2)oc2cc(-c3cc(COC)on3)c(OC)cc12 on HCV NS5B (Hepatitis C virus genotype 1b) was ≥ 6.30

Here CNC(=O)c1c(-c2ccc(F)cc2)oc2cc(N(Cc3ccncc3)S(C)(=O)=O)c(OC)cc12 was tested on HCV NS5B (Hepatitis C virus genotype 1b), and its pIC50 came to ≥ 6.30

The reported HCV NS5B (Hepatitis C virus genotype 1b) pIC50 of CNC(=O)c1c(-c2ccc(F)cc2)oc2cc(C3CCCN3S(C)(=O)=O)c(OC)cc12 (stereo not shown) is ≥ 6.30

For CNC(=O)c1c(-c2ccc(F)cc2)oc2cc(N(C)S(C)(=O)=O)c(OCc3ccc(OC)cc3)cc12 on HCV NS5B (Hepatitis C virus genotype 1b), measured pIC50 was ≥ 6.30

Lab entry: HCV NS5B (Hepatitis C virus genotype 1b) assay, compound CNC(=O)c1c(-c2ccc(F)cc2)oc2cc(-c3cc(C)on3)c(OC(C)C)cc12 , pIC50 = ≥ 6.30

Given the compound CNC(=O)c1c(-c2ccc(F)cc2)oc2cc(-c3cc[nH]c3)c(OC)cc12 and test system HCV NS5B (Hepatitis C virus genotype 1b), the measured pIC50 is 4.52 to 5.30

# lookup: CNC(=O)c1c(-c2ccc(F)cc2)oc2cc(-c3cc(C4CC4)on3)c(OC(C)C)cc12 on HCV NS5B (Hepatitis C virus genotype 1b), pIC50 = ≥ 6.30

HCV NS5B (Hepatitis C virus genotype 1b) assay, compound CNC(=O)c1c(-c2ccc(F)cc2)oc2cc(N(C)S(C)(=O)=O)c(OCc3cccc(C(=O)OC)c3)cc12 , recorded pIC50 = ≥ 6.30

Kindly note: HCV NS5B (Hepatitis C virus genotype 1b), CNC(=O)c1c(-c2ccc(F)cc2)oc2cc(N(C)S(C)(=O)=O)c(OCc3cscn3)cc12 , pIC50 value reported: 5.30 to 6.30

---

biological target: HCV NS5B (Hepatitis C virus genotype 1b, UniProt Q9WMX2); construct: fusion protein, of which the carboxyl terminal 21 amino acids were removed to enhance its solubility; His tag (GSHHHHHH); made in house; host or cells: E. coli; test: Inhibition of viral RNA-dependent RNA polymerase (RdRp), in vitro biochemical assay; parameters: species or system HCV genotype 1b virus (BB7); settings: HCV NS5B polymerase, BB7 (genotype 1b); values given as range classes A-D; read-out: HCV pol-BB7 IC50
quantity_name: IC50

IC50 measured on CNC(=O)c1c(-c2ccc(F)cc2)oc2cc(-c3nc(C)nn3C)c(OC)cc12 = 500 to 5000 nM

get_value(item= CNC(=O)c1c(-c2ccc(F)cc2)oc2cc(-c3c(C)noc3C)c(OCc3c(C)noc3C)cc12 , readout=IC50) returns ≤ 500 nM

Record CNC(=O)COc1cc2c(C(=O)NC)c(-c3ccc(F)cc3)oc2cc1N(C)S(C)(=O)=O . Reported IC50: ≤ 500 nM

For record CNC(=O)c1c(-c2ccc(F)cc2)oc2cc(C3NC(=O)NC3=O)c(OC)cc12 (stereo not shown) the listed IC50 is 500 to 5000 nM

Per the records, this compound ( CCOc1cc2c(C(=O)NC)c(-c3ccc(F)cc3)oc2cc1-c1c(C)noc1C ) has IC50 equal to ≤ 500 nM

The reported value for CNC(=O)c1c(-c2ccc(F)cc2)oc2cc(N(C)S(C)(=O)=O)c(OCC(=O)O)cc12 in terms of IC50 is ≤ 500 nM

Record summary for CNC(=O)c1c(-c2ccc(F)cc2)oc2cc(C3(C)NC(=O)NC3=O)c(OC)cc12 (stereo not shown) : reported IC50 = ≤ 500 nM

The compound listed as CNC(=O)c1c(-c2ccc(F)cc2)oc2cc(C(C)(C)N)c(OC)cc12 shows IC50 equal to 500 to 5000 nM

The value of IC50 measured for the compound CNC(=O)c1c(-c2ccc(F)cc2)oc2cc(N(C)S(C)(=O)=O)c(OCc3nccs3)cc12 turned out to be ≤ 500 nM

Recorded IC50 (compound CCN(CC)C(=O)COc1cc2c(C(=O)NC)c(-c3ccc(F)cc3)oc2cc1N(C)S(C)(=O)=O ): ≤ 500 nM

Reported IC50 ( CNC(=O)c1c(-c2ccc(F)cc2)oc2cc(C(C)(C)NC(C)=O)c(OC)cc12 ) = ≤ 500 nM

// IC50 lookup, compound = CNC(=O)c1c(-c2ccc(F)cc2)oc2cc(N(C)S(C)(=O)=O)c(OCC(N)=O)cc12 , result: ≤ 500 nM

Entry CNC(=O)c1c(-c2ccc(F)cc2)oc2cc(N(C)S(C)(=O)=O)c(OCc3ncc[nH]3)cc12 , IC50 reported as ≤ 500 nM

GET /value?item= CNC(=O)c1c(-c2ccc(F)cc2)oc2cc(N(C)C)c(OC)cc12 &field=IC50 returns ≤ 500 nM

Noted for CNC(=O)c1c(-c2ccc(F)cc2)oc2cc(NS(C)(=O)=O)c(-c3ccco3)cc12 : its IC50 reads ≤ 500 nM

Note to self: IC50 recorded for CNC(=O)c1c(-c2ccc(F)cc2)oc2cc(N(C)S(C)(=O)=O)c(OCc3nccn3Cc3ccccc3)cc12 was ≤ 500 nM
